For each record, write down the corresponding Tm.
- Experiment Description: melting temperature; fluorescence melt of hairpins on a sequencing array, two-state fit, raised by 9.35 °C to match UV melts
- Condition Parameters: sodium 0.088 M
// units = °C; emit number, no label

Q: Need Tm, item GTACTCCCGAAAGGGTAC (((..(((....))))))
A: 33.5

Q: Need Tm, item GAAGAACGAAAGTTGTTC (((.(((....))).)))
A: 41.4

Q: Need Tm, item GATCCAGGAAACTGGATC (((((((....)))))))
A: 60.9

Q: Need Tm, item GGGACCGGAAACGACCCC (((..((....))..)))
A: 35.5

Q: Need Tm, item GATCTTACGTAAGATC ((((((....))))))
A: 48.3

Q: Need Tm, item GCATTCGAAAGAAATGC ((((((....))).)))
A: 49

Q: Need Tm, item GACTGGGGAAACTCAGTC (((((.(....).)))))
A: 49.9

Q: Need Tm, item CGCGGAAGCATCCGCG ((((((....))))))
A: 60.3

Q: Need Tm, item GTTACCGGAAACGGTAGC (.(((((....))))).)
A: 50.4

Q: Need Tm, item GGTCACGAAAGTGCACC ((((((....))).)))
A: 52.5

Q: Need Tm, item GGTTGAGGAAACTCAACC (((((((....)))))))
A: 60.7

Q: Need Tm, item CGTCCCGGAAACGGAACG (((.(((....))).)))
A: 47.5

* * *

- Experiment Description: melting temperature; fluorescence melt of hairpins on a sequencing array, two-state fit, raised by 9.35 °C to match UV melts
- Condition Parameters: sodium 0.088 M
Could you mark each record yes (1) if its Tm falls strictly under 40 °C, and no (0) if it equals or exceeds it?

Q: hey, is Tm for GATCTGTGAACAGATC ((((((....)))))) lower than 40 °C or not?
A: no (0)

Q: hey, is Tm for GATCTGTTGTCAGATC ((((((....)))))) lower than 40 °C or not?
A: no (0)

Q: hey, is Tm for GGATGGACGAAAGTCTCC (((..(((....)))))) lower than 40 °C or not?
A: yes (1)

Q: hey, is Tm for GGGTGTGGAAACACACTC (.(((((....))))).) lower than 40 °C or not?
A: no (0)

Q: hey, is Tm for GGCGATCGAAAGATTGCC (((.(((....))).))) lower than 40 °C or not?
A: no (0)

Q: hey, is Tm for GATCCCACCAGGGATC ((((((....)))))) lower than 40 °C or not?
A: no (0)

Q: hey, is Tm for CGTTTCGGAAACGATACG (((.(((....))).))) lower than 40 °C or not?
A: no (0)

Q: hey, is Tm for GCTACCGAAAGGTACAGC ((((((....)))..))) lower than 40 °C or not?
A: no (0)

Q: hey, is Tm for GATCTCCACGGAGATC ((((((....)))))) lower than 40 °C or not?
A: no (0)

Q: hey, is Tm for GATCCTATGCAGGATC ((((((....)))))) lower than 40 °C or not?
A: no (0)

Q: hey, is Tm for GACGCTGGAAACAGTGTC (((.(((....))).))) lower than 40 °C or not?
A: no (0)

Q: hey, is Tm for GCTTACGAAAGTAATAGC ((((((....)))..))) lower than 40 °C or not?
A: yes (1)

Q: hey, is Tm for GTTCACCCGAAAGGGAAC (((..(((....)))))) lower than 40 °C or not?
A: yes (1)

Q: hey, is Tm for GCGTGGCGAAAGCTAAGC ((.(.((....)).).)) lower than 40 °C or not?
A: no (0)

Q: hey, is Tm for GCGTGCGGAAACGCACAC (.(((((....))))).) lower than 40 °C or not?
A: no (0)

Q: hey, is Tm for GATCAAGGAAACTCGATC ((((.((....)).)))) lower than 40 °C or not?
A: yes (1)

Q: hey, is Tm for GATCTAGGATTAGATC ((((((....)))))) lower than 40 °C or not?
A: no (0)

Q: hey, is Tm for GGTTAGGGAAACCTGACC (((.(((....))).))) lower than 40 °C or not?
A: no (0)

Q: hey, is Tm for GGCCGTCCGAAAGGAGCC (((..(((....)))))) lower than 40 °C or not?
A: no (0)

Q: hey, is Tm for GCGGTCCCCCGC ((((....)))) lower than 40 °C or not?
A: no (0)

Q: hey, is Tm for GATCTGGAGCAGATC ((((((...)))))) lower than 40 °C or not?
A: no (0)

Q: hey, is Tm for GCCACGCGAAAGCCTAGC ((.(.((....)).).)) lower than 40 °C or not?
A: yes (1)

Q: hey, is Tm for GTCTAAGGAAACTTAGAC (((((((....))))))) lower than 40 °C or not?
A: no (0)

Q: hey, is Tm for GATCGGTTGCCGATC ((((((...)))))) lower than 40 °C or not?
A: no (0)

Q: hey, is Tm for GGTGAGGGAAACTTCACC (((((.(....).))))) lower than 40 °C or not?
A: no (0)

Q: hey, is Tm for GCGTAGCGAAAGCTATGC ((.((((....)))).)) lower than 40 °C or not?
A: no (0)

Q: hey, is Tm for GTTACGCGAAAGCGCAAC (((.(((....))).))) lower than 40 °C or not?
A: no (0)

Q: hey, is Tm for GCCATGCGAAAGCGTAGC ((.(.((....)).).)) lower than 40 °C or not?
A: yes (1)

Q: hey, is Tm for GGCCGACGAAAGTCAGCC (((.(((....))).))) lower than 40 °C or not?
A: no (0)

Q: hey, is Tm for GTGTACGAAAGTAGCCAC ((((((....)))..))) lower than 40 °C or not?
A: yes (1)

Q: hey, is Tm for GATCAGCGTACTGATC ((((((....)))))) lower than 40 °C or not?
A: no (0)

Q: hey, is Tm for GCAGACGAAAGTCGTTGC ((((((....)))..))) lower than 40 °C or not?
A: no (0)

Q: hey, is Tm for GGTGACGAAAGTCCTACC ((((((....)))..))) lower than 40 °C or not?
A: yes (1)

Q: hey, is Tm for GTATATGGAAACGTATAC (((((.(....).))))) lower than 40 °C or not?
A: yes (1)

Q: hey, is Tm for GTAATCGAAAGATTTAC ((((((....))).))) lower than 40 °C or not?
A: yes (1)

Q: hey, is Tm for GCAGTGCGAAAGCATGGC ((..(((....)))..)) lower than 40 °C or not?
A: no (0)

Q: hey, is Tm for GATTGCGAAAGCACGATC ((((((....)))..))) lower than 40 °C or not?
A: yes (1)

Q: hey, is Tm for GCATAGCGAAAGCTGAGC ((..(((....)))..)) lower than 40 °C or not?
A: no (0)

Q: hey, is Tm for GTATAAGCGAAAGCTTAC (((..(((....)))))) lower than 40 °C or not?
A: yes (1)

Q: hey, is Tm for GTTGTGGGAAACCACAAC (((((((....))))))) lower than 40 °C or not?
A: no (0)

Q: hey, is Tm for GATCATCAACATGATC ((((((....)))))) lower than 40 °C or not?
A: no (0)

Q: hey, is Tm for GCGGTGCCGAAAGGCCGC (((..(((....)))))) lower than 40 °C or not?
A: no (0)

Q: hey, is Tm for GCCAATCGAAAGATCGGC (((.(((....))).))) lower than 40 °C or not?
A: no (0)

Q: hey, is Tm for GCGATGCGAAAGCAAGGC ((..(((....)))..)) lower than 40 °C or not?
A: no (0)

Q: hey, is Tm for GCCCCAGGAAACCGAGGC (((.(.(....).).))) lower than 40 °C or not?
A: yes (1)

Q: hey, is Tm for GTTAGGCGAAAGCCGAAC (((.(((....))).))) lower than 40 °C or not?
A: no (0)

Entry source: the array DNA melting data of Ke et al. (doi:10.1101/2024.01.08.574731)
